target: GHSR-1a (HEK293/GHSR1a cell line) (Homo sapiens, UniProt Q92847); construct: expressed in transfected cells; host or cells: HEK293/GHSR1a cell line; assay: Ghrelin antagonist potency (IC50) with calcium FLIPR assay, ghrelin 10 nM; type: cell-based; conditions: HEK293/GHSR1a, ghrelin 10 nM, read-out: Activity IC50 (ghrelin antagonist potency)
Sequence (Q92847 whole entry): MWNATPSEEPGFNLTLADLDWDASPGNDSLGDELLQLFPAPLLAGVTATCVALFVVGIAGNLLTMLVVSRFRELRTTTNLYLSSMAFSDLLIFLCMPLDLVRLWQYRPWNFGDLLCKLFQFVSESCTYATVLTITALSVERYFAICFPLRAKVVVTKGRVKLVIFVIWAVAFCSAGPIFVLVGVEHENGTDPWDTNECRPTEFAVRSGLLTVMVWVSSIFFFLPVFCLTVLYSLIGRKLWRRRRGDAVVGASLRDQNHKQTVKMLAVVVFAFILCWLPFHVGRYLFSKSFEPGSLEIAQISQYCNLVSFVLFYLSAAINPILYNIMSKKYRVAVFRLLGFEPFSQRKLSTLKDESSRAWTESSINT
Provide the reported pIC50 of each item.
Answers are plain numbers, as −log10 of the molar value.

Use the examples below as a reference point.
[
  {
    "molecule": "CC(NC(=O)Nc1ccc(S(=O)(=O)Cc2ccc3c(c2)CN(C)C3)cc1)c1ccccc1Cl (stereo not shown) [H1267]",
    "pIC50": 8.04
  },
  {
    "molecule": "CCc1ccc(Cl)c(C(=O)NC(=O)Nc2ccc(S(=O)(=O)Nc3ccc(CC(C)(C)N)cc3)cc2)c1 [H1254]",
    "pIC50": 7.76
  },
  {
    "molecule": "COc1cccc(F)c1C(C)NC(=O)Nc1ccc(S(=O)(=O)Cc2ccc3c(c2)CNC3)cc1 (stereo not shown) [H1455]",
    "pIC50": 7.37
  }
]

Then this molecule:
q: Quick check: pIC50 of COc1cc(S(=O)(=O)Cc2ccc(CO)cc2)ccc1NC(=O)NC(C)c1cccc(Cl)c1Cl (stereo not shown) [H1434] ?
a: 6.07

---

assay: Animal PK study in rat via i.v., p.o. and s.c. administration; assay type: in vivo; details: plasma, iv, 5 mg/kg; rat, i.v.; read-out: PK t1/2 i.v. (R)
quantity-kind: half-life (h)
Answers are plain numbers, in h.

q: Quick check: half-life of COc1cc(S(=O)(=O)Cc2ccc3c(c2)CCNC3)ccc1NC(=O)NC(C)c1cccc(Cl)c1Cl.Cl (stereo not shown) ?
a: 13

---

Provide the reported PK t1/2po of each item.
assay: Animal PK study in mouse via i.v., p.o. and s.c. administration; type: in vivo; conditions: p.o.
One number for each entry, in h.

Dear colleague, could you please provide PK t1/2po for the compounds listed below?
1. CC(NC(=O)Nc1ccc(S(=O)(=O)Cc2ccc3c(c2)CNC3)cc1)c1cccc2ccccc12.Cl (centres unmarked) [H1149]
2. CC(C)(N)Cc1ccc(NS(=O)(=O)c2ccc(NC(=O)NCc3ccccc3)cc2)cc1.Cl [H0993]
3. Cl.O=C(NCc1cccc(Cl)c1Cl)Nc1ccc(S(=O)(=O)Cc2ccc3c(c2)CNC3)cc1 [H1057]
4. CCOC(=O)N1CCc2cc(NS(=O)(=O)c3ccc(NC(=O)N[C@@H](C)c4cccc(Cl)c4Cl)cc3)ccc2C1 [H1054]
5. O=C(NCc1ccccc1Cl)Nc1ccc(S(=O)(=O)Cc2ccc3c(c2)CCNC3)cc1 [H1039]

a:
1: 1.75; 2: 4.03; 3: 3.11; 4: 1.24; 5: 1.86

Dear colleague, could you please provide PK t1/2po for the compounds listed below?
1. C[C@H](NC(=O)Nc1ccc(S(=O)(=O)Nc2ccc(CC(C)(C)N)cc2)cc1)c1ccc(-c2cnccn2)c(Cl)c1Cl [H0906]
2. CC(NC(=O)Nc1ccc(S(=O)(=O)Cc2ccc3c(c2)CN(CC2CC2)C3)cc1)c1ccccc1 (centres unmarked) [H1220]

a:
1.39
0.89

---

target: GHSR-1a (HEK293/GHSR1a cell line) (Homo sapiens, UniProt Q92847); construct: expressed in transfected cells; host or cells: HEK293/GHSR1a cell line; assay: Ghrelin antagonist potency (IC50) with calcium FLIPR assay, ghrelin 10 nM; format: cell-based; conditions: HEK293/GHSR1a, ghrelin 10 nM, read-out: Activity IC50 (ghrelin antagonist potency)
Rule for this label: met means IC50 is less than 0.02 µM; not met means IC50 is at least 0.02 µM.

[
  {
    "compound": "CC1Cc2cc(CS(=O)(=O)c3ccc(NC(=O)N[C@@H](C)c4cccc(Cl)c4Cl)cc3)ccc2CN1 (some centres unmarked)",
    "answer-label": "met"
  },
  {
    "compound": "COc1cc(S(=O)(=O)Cc2ccc3c(c2)CNC3)ccc1NC(=O)NC(C)c1cccc(Cl)c1Cl.Cl (centres unmarked)",
    "answer-label": "met"
  },
  {
    "compound": "C[C@H](NC(=O)Nc1ccc(S(=O)(=O)Nc2ccc3c(c2)CCN(C)C3)cc1)c1cccc(Cl)c1Cl",
    "answer-label": "met"
  },
  {
    "compound": "COc1cc(S(=O)(=O)Cc2cc3c(cc2F)CNCC3)ccc1NC(=O)NC(C)c1cccc(Cl)c1Cl (centres unmarked)",
    "answer-label": "met"
  },
  {
    "compound": "CC(NC(=O)Nc1ccc(S(=O)(=O)Cc2ccc3c(c2)CNC3=O)cc1)c1ccccc1 (centres unmarked)",
    "answer-label": "not met"
  },
  {
    "compound": "CC(NC(=O)Nc1ccc(S(=O)(=O)Cc2ccc3c(c2)CNC3)cc1F)c1c(F)cccc1F (centres unmarked)",
    "answer-label": "not met"
  }
]

q: is_below(IC50, 0.02 µM) for `CN1Cc2ccc(CS(=O)(=O)c3ccc(NC(=O)N[C@@H]4CCCc5ccccc54)cc3)cc2C1` ?
a: not met
